Tested on: 171881-019-R-J1-PDC tumor spheroids, viability;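 also: spheroids exposed to compounds for 7 days; 100% = DMSO vehicle control viability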
TEST_DESCRIPTION: Anticancer human tumor 171881-019-R-J1-PDC patient-derived invasive breast carcinoma cell line growth inhibition [GQUAD]
CONDITION_PARAMETERS: second compound 1 µM; first compound 1 µM; hits give low values; spheroids with HUVEC and MSC
Listing of recorded viability, T/C by entry.
Entry rule: numbers only, all in %.

Please review the entries below; each comes with its answer.
O=c1[nH]cc(F)c(=O)[nH]1 + CN(C)c1ccc(Nc2c3ccc(NC(=O)CCN4CCCC4)cc3nc3cc(NC(=O)CCN4CCCC4)ccc23)cc1 | 12.6
O=c1[nH]cc(F)c(=O)[nH]1 + Cc1[nH]c2ccc(F)cc2c1-c1nc2c3cccnc3c3ncccc3c2[nH]1 | 50.2
CC1COCCN1c1cc(C2(S(C)(=N)=O)CC2)nc(-c2ccnc3[nH]ccc23)n1 (stereo unspecified) + Cc1cnc(CNC(=O)c2c(=O)c3ccc(N4CCCN(C)CC4)nc3n3c2sc2ccccc23)cn1 | 50.3
O=C(c1cc(Cc2n[nH]c(=O)c3ccccc23)ccc1F)N1CCN(C(=O)C2CC2)CC1 + CN(C)c1ccc(Nc2c3ccc(NC(=O)CCN4CCCC4)cc3nc3cc(NC(=O)CCN4CCCC4)ccc23)cc1 | 18.4

Prompt line: Given the molecule COc1ccc([C@@H](O)c2cc(-c3ncnc4cc(N5CCOCC5)ccc34)c(F)cc2Cl)nn1 + Cc1[nH]c2ccc(F)cc2c1-c1nc2c3cccnc3c3ncccc3c2[nH]1 , write its reported viability, T/C.
Response line: 32.3

Prompt line: Read the entry C#Cc1c(F)ccc2cc(O)cc(-c3ncc4c(N5CC6CCC(C5)N6)nc(OCC56CCCN5CC(F)C6)nc4c3F)c12 (stereo unspecified) + Cc1[nH]c2ccc(F)cc2c1-c1nc2c3cccnc3c3ncccc3c2[nH]1 and write its reported viability, T/C.
Response line: 23.4
